Data origin, for the record: patent US20110144155A1

Test: Copper binding: stability constant and Cu:ligand ratio
Format: physicochemical
quantity-name: K (stability)
One number for each entry.

Worked examples, 4 molecules total:
O=[N+]([O-])c1ccc(O)c2ncccc12 [HNQ, 8-hydroxy-5-nitroquinoline] :: 9.13
Oc1c(Br)cc(Cl)c2cccnc12 [BCQ, 7-bromo-5-chloro-8-hydroxyquinoline] :: 10.24
Nc1ccc(O)c2ncccc12 [5AHQ, 5-amino-8-hydroxyquinoline] :: 9.84
Oc1ccc(Cl)c2cccnc12 [COQ, 5-chloro-8-hydroxyquinoline] :: 8.89

Can you look up the measured K (stability) of Oc1c(I)cc(Cl)c2cccnc12 [Clioquinol, 5-chloro-7-iodo-8-hydroxyquinoline, reference compound] for me?
9.06

---

Target: 20S proteasome (Homo sapiens)
Construct: Cellular proteins were extracted from cells with lysis buffer; endogenous in cells
Sequence (P28074 60-263): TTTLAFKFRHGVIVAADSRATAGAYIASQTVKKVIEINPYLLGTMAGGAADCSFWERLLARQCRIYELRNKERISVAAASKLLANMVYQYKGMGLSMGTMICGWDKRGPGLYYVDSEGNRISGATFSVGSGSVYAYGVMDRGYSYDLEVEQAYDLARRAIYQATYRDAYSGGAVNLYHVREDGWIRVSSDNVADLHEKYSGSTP
Test: Proteasome activity (chymotrypsin-like, Suc-LLVY-AMC)
quantity-name: pIC50
Give bare numbers, as −log10 of the molar value.

Worked examples, 3 compounds total:
O=[N+]([O-])c1ccc(O)c2ncccc12 [HNQ, 8-hydroxy-5-nitroquinoline] :: 4.81
Oc1ccc(Cl)c2cccnc12 [COQ, 5-chloro-8-hydroxyquinoline] :: 4.20
Oc1c(Br)cc(Cl)c2cccnc12 [BCQ, 7-bromo-5-chloro-8-hydroxyquinoline] :: 4.81

Can you look up the measured pIC50 of Oc1c(I)cc(Cl)c2cccnc12 [Clioquinol, 5-chloro-7-iodo-8-hydroxyquinoline, reference compound] for me?
4.90
